Recorded CC50, one value per entry.
assay: NOVARTIS: Cytotoxicity against human hepatocellular carcinoma cell line (Huh7); format: toxicity, cell-based, Huh-7; details: Huh7 cells (hepatocellular carcinoma cell line)

>  <COMPOUND>
CN1CCC(N2CCC(Oc3cccc(C(=O)NCCC4=CCCCC4)c3)CC2)CC1

>  <EXPERIMENTAL_ENDPOINT>
CC50

>  <VALUE_OBSERVED>
20.7 µM

$$$$
>  <COMPOUND>
CCOC(=O)C1=C(C)NC(=Cc2cc(C)n(-c3cccc(Br)c3)c2C)C1=O

>  <EXPERIMENTAL_ENDPOINT>
CC50

>  <VALUE_OBSERVED>
> 100 µM

$$$$
>  <COMPOUND>
CC(c1nc2ccc(Cl)cc2c(=O)n1C)N1CCN(C(=O)C(C)(C)C)CC1 (stereo not drawn)

>  <EXPERIMENTAL_ENDPOINT>
CC50

>  <VALUE_OBSERVED>
> 10 µM

$$$$
>  <COMPOUND>
CCCCCCCCCC(=O)Oc1ccccc1-c1nc2cc(C)ccn2c1NC(C)(C)CC(C)(C)C

>  <EXPERIMENTAL_ENDPOINT>
CC50

>  <VALUE_OBSERVED>
> 10 µM

$$$$
>  <COMPOUND>
Cc1cccc(C)c1NC(=O)C(O)c1ccc(Cl)cc1Cl (stereo not drawn)

>  <EXPERIMENTAL_ENDPOINT>
CC50

>  <VALUE_OBSERVED>
> 10 µM

$$$$
>  <COMPOUND>
CCOC(=O)C1CCN(C(=S)Nc2ccc3nsnc3c2)CC1

>  <EXPERIMENTAL_ENDPOINT>
CC50

>  <VALUE_OBSERVED>
30.3 µM

$$$$
>  <COMPOUND>
CC(=O)Nc1ccc(S(=O)(=O)NC2C(C)(C)C3CC[C@]2(C)C3)cc1 (stereo partly drawn)

>  <EXPERIMENTAL_ENDPOINT>
CC50

>  <VALUE_OBSERVED>
> 10 µM

$$$$
>  <COMPOUND>
COc1cc(NC(C)CCCN(Cc2ccc(F)cc2)C(=O)Nc2ccc(Br)cc2)c2ncccc2c1 (stereo not drawn)

>  <EXPERIMENTAL_ENDPOINT>
CC50

>  <VALUE_OBSERVED>
4.24 µM

$$$$
>  <COMPOUND>
C=CCNC(=S)N1CCN(c2ccc([N+](=O)[O-])cc2)CC1

>  <EXPERIMENTAL_ENDPOINT>
CC50

>  <VALUE_OBSERVED>
> 10 µM

$$$$
>  <COMPOUND>
CCOc1cc(C2CC(=O)NC3=C2C(=O)CC(c2cc(OC)ccc2OC)C3)ccc1O (stereo not drawn)

>  <EXPERIMENTAL_ENDPOINT>
CC50

>  <VALUE_OBSERVED>
> 100 µM

$$$$

# compound "COc1cc(NC(=O)/C=C/c2ccccc2Cl)cc(OC)c1OC" ; its CC50 = > 10 µM

# compound "CC(C)(C)C(=O)NCCNc1ccc([N+](=O)[O-])cc1C(F)(F)F" ; its CC50 = > 100 µM

# compound "CCN(CC)Cc1cc2ccc(C)cc2n(CC(=O)OC)c1=O" ; its CC50 = > 10 µM
